B1: HDV Ribozyme (parent)
chain: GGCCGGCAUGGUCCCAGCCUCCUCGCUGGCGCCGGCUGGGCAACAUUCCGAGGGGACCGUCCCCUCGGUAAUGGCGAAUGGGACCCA

variants of: B1; test: self-cleavage, relative activity (ratio to wild type); higher = more cleavage; co-transcriptional
Reported self-cleavage is given for each of the following variants.
Please give only the number in your answer, with no unit.

Consider the reported self-cleavage for these variants:
U79A G80C; 0.204
C21A C48U; 0.0639
C41A A78G; 0.534
U65A A71U; 0.76
G5C C14G; 0.111

The measured self-cleavage associated with G31U G35U reads 0.0443

The variant G54U U65C showed self-cleavage equal to 0.969

GET /value?item= U9C G28C &field=self-cleavage returns 0.0573
